Tested on: Proteus vulgaris
MEASUREMENT NOTES: Antimicrobial activity against Proteus vulgaris A161 […]
Type: functional
ASSAY METRIC: inhibition zone (IZ) (mm)
Give bare numbers, in mm.

Examples with answers:
{"MOLECULE": "Oc1ccc(-c2ccc(F)cc2F)cc1-c1nnc(Nc2ccccc2)s1", "SUBJECT OF TEST": "Proteus vulgaris", "ASSAY METRIC": "inhibition zone (IZ)", "MEASUREMENT UNIT": "mm", "MEASURED NUMBER": 14}
{"MOLECULE": "Oc1ccc(-c2ccc(F)cc2F)cc1-c1n[nH]c(=S)n1C1CCCCC1", "SUBJECT OF TEST": "Proteus vulgaris", "ASSAY METRIC": "inhibition zone (IZ)", "MEASUREMENT UNIT": "mm", "MEASURED NUMBER": 10}
{"MOLECULE": "Cn1c(-c2cc(-c3ccc(F)cc3F)ccc2O)n[nH]c1=S", "SUBJECT OF TEST": "Proteus vulgaris", "ASSAY METRIC": "inhibition zone (IZ)", "MEASUREMENT UNIT": "mm", "MEASURED NUMBER": 10}
{"MOLECULE": "C=CCn1c(-c2cc(-c3ccc(F)cc3F)ccc2O)n[nH]c1=S", "SUBJECT OF TEST": "Proteus vulgaris", "ASSAY METRIC": "inhibition zone (IZ)", "MEASUREMENT UNIT": "mm", "MEASURED NUMBER": 10}

Now consider the entry below.
Check the records and state inhibition zone (IZ) for CCn1c(-c2cc(-c3ccc(F)cc3F)ccc2O)n[nH]c1=S
9
